These entries and their values trace back to patent US20250197428A1.

Items are presented alongside their recorded Vd.
Assay: In vivo pharmacokinetic evaluation in mouse
Design: species or system female balb/c nude mice
Details: female, balb/c nude, plasma, 3 mg/kg IV, read-out: IV Vss
result_type: Vd

compound="Cc1cc(NC(=O)c2ccc(NS(=O)(=O)CCO)cc2N2CC[C@@]3(F)CC[C@H]3C2)nc(N2CCC(F)(F)CC2)n1 (single isomer, unassigned) [Example 50b]" result_type=Vd assay_result="0.51 L/kg"
compound="Cc1cc(NC(=O)c2ccc(NS(=O)(=O)CCO)cc2N2CC[Si](C)(C)CC2)nc(N2CCC(F)(F)CC2)n1 [Example 9]" result_type=Vd assay_result="2.5 L/kg"
compound="Cc1cc(NC(=O)c2ccc(NS(=O)(=O)CCO)cc2N2CC[C@@]3(C(F)F)C[C@H]3C2)nc(N2CCC(F)(F)CC2)n1 (single isomer, unassigned) [Example 29b]" result_type=Vd assay_result="0.97 L/kg"
compound="Cc1cc(NC(=O)c2ccc(NS(=O)(=O)CCO)cc2N2CC[Si](C)(C)CC2)nc(C2CCC(F)(F)CC2)n1 [Example 1]" result_type=Vd assay_result="2.7 L/kg"
compound="Cc1cc(NC(=O)c2ccc(NS(=O)(=O)CCO)cc2N2CCC3(CC2)CC3)nc(N2CCC(F)(F)CC2)n1 [Compound A, reference compound]" result_type=Vd assay_result="2 L/kg"
